All values here come from patent US12134788B2.

# assayed_target: MtPDH (MtPDH1; Mt3g071980), Medicago truncatula prephenate dehydrogenase, wild type (Medicago truncatula, UniProt A0A0A0R205)
# Sequence (A0A0A0R205 1-268): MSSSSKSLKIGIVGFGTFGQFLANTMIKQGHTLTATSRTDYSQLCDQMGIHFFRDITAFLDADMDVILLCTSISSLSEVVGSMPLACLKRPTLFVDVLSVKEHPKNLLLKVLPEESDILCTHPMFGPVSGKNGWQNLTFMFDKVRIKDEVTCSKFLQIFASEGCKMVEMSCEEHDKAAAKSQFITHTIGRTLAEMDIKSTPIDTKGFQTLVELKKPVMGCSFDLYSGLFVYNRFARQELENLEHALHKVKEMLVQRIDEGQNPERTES
# protocol_text: ADH and PDH assay: steady-state kinetics and Tyr inhibition, MtPDH wild type
# Assay type: biochemical
pIC50: −log10 of the molar value.
measure_name: pIC50

compound	measure_name	recorded_result
N[C@@H](Cc1ccc(O)cc1)C(=O)O [Tyr, L-Tyrosine]	pIC50	1.49

====

# assayed_target: Glycine max GmPDH1 variant N222D, SEQ ID NO: 2 (Glycine max, UniProt I1MYY4, N222D)
# Sequence (I1MYY4 1-271 N222D): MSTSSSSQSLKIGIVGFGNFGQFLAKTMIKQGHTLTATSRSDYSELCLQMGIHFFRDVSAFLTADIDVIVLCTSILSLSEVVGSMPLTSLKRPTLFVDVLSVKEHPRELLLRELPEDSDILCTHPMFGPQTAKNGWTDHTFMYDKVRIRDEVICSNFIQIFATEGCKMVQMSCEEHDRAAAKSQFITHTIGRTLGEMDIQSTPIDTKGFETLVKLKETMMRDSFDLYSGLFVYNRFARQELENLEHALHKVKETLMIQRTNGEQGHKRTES
# protocol_text: ADH and PDH assay: steady-state kinetics and Tyr inhibition, GmPDH1 N222D
# Assay type: biochemical, Glycine max (soybean)
# condition_details: IC50^Tyr, substrate prephenate (0.8 mM), 0.5 mM NADP^+

molecule	result_units	IC50
N[C@@H](Cc1ccc(O)cc1)C(=O)O [Tyr, L-Tyrosine]	mM	5.3

====

# assayed_target: Glycine max GmPDH1 variant M219T/N222D (Glycine max, UniProt I1MYY4, M219T/N222D)
# Sequence (I1MYY4 1-271 M219T/N222D): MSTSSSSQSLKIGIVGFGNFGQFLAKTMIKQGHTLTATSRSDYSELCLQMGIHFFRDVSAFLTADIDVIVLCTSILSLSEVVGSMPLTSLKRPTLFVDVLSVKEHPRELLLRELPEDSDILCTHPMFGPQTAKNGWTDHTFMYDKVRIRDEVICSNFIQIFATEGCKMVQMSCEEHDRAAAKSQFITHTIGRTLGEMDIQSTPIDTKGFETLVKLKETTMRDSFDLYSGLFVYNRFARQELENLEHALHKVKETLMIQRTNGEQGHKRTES
# protocol_text: ADH and PDH assay: steady-state kinetics and Tyr inhibition, GmPDH1 M219T/N222D
# Format: biochemical, Glycine max (soybean)
# condition_details: IC50^Tyr, substrate prephenate (0.8 mM), 0.5 mM NADP^+

compound	IC50 / mM
N[C@@H](Cc1ccc(O)cc1)C(=O)O [Tyr, L-Tyrosine]	11.1
